Measured IC50 of individual entries
- Tested on: human pulmonary malignant cells (A549)
- Test name: Alamar Blue cytotoxicity assay, A549 cells
- Type: cell-based
- Measurement setup: Homo sapiens, A549; 48 h exposure, Alamar Blue; read-out: IC50 (±SD) A549
Experimental endpoint: IC50 (µM)

>  <Compound>
Oc1ccc(-c2csc(-c3ccc(Br)cc3)n2)cc1O [Compound 3d]

>  <Assay result>
6.08

$$$$
>  <Compound>
COc1cc(-c2nc(-c3ccc(O)c(O)c3)cs2)cc(OC)c1OC [Compound 3f]

>  <Assay result>
8.76

$$$$
>  <Compound>
Oc1ccc(-c2csc(-c3ccccn3)n2)cc1O [Compound 3h]

>  <Assay result>
13.1

$$$$
>  <Compound>
Oc1ccc(-c2csc(-c3csc(-c4ccccc4)n3)n2)cc1O [Compound 3i]

>  <Assay result>
5.18

$$$$
>  <Compound>
Cc1ccc(-c2nc(-c3nc(-c4ccc(O)c(O)c4)cs3)cs2)cc1 [Compound 3j]

>  <Assay result>
4.28

$$$$
>  <Compound>
Cc1cccc(-c2nc(-c3ccc(O)c(O)c3)cs2)c1 [Compound 3e]

>  <Assay result>
6.46

$$$$
>  <Compound>
Oc1ccc(-c2csc(-c3ccncc3)n2)cc1O [Compound 3g]

>  <Assay result>
7.34

$$$$
